compounds and their reported IC50
- target: BRG-1 (Homo sapiens, UniProt P51532)
- Construct: made in house; host or cells: High Five insect cells
- Sequence (P51532 whole entry): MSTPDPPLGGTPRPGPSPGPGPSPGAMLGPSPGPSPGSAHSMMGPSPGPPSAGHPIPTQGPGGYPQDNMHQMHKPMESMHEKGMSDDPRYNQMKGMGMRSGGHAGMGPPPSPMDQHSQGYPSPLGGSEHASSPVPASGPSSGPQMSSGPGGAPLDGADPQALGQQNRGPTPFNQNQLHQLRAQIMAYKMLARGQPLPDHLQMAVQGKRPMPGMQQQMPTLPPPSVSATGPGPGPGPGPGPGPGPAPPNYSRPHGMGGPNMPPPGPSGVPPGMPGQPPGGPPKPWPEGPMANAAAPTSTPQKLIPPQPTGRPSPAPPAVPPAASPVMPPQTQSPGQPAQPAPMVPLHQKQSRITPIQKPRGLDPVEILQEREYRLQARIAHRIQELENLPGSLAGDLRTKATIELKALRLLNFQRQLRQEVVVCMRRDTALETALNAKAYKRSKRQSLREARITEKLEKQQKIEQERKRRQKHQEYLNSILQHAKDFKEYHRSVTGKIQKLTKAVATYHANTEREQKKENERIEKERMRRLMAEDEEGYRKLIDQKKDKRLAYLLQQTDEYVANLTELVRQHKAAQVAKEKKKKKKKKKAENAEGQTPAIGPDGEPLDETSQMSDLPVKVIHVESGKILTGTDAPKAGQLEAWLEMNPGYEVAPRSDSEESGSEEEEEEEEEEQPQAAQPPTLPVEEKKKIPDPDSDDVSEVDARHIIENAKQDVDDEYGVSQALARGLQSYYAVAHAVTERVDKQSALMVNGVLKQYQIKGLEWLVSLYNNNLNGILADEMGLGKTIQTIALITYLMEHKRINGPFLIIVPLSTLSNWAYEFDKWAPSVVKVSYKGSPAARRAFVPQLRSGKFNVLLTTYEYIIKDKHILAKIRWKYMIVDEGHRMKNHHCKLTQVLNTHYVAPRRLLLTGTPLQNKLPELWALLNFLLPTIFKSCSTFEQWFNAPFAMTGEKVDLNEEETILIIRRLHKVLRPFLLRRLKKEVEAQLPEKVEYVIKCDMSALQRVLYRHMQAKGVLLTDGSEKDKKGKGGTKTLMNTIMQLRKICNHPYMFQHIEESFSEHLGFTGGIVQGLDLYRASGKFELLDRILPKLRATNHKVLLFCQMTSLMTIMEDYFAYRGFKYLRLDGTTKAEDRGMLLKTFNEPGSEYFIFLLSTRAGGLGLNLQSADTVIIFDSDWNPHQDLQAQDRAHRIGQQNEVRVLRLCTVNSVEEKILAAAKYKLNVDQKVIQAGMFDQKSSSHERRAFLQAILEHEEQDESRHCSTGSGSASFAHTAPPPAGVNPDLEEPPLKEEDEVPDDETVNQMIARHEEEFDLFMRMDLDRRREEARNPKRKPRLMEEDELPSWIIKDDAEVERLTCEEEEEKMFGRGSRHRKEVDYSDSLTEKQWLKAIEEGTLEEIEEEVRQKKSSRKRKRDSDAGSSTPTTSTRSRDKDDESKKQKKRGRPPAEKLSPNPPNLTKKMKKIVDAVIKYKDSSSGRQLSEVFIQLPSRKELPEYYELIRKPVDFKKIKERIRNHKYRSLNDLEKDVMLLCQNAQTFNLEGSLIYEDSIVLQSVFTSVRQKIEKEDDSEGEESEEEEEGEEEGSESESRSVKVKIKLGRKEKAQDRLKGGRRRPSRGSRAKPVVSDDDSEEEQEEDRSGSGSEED
- experimental_protocol: ATPase catalytic activity of BRG-1, ADP-Glo in vitro biochemical assay
- experimental_conditions: ATPase catalytic activity, 30 nM BRG-1, 400 μM ATP, read-out: BRG1 IP50 (μM)*

Here's what some known entries look like.
• CC1(O)CCN(c2cccc(-c3csc(NC(=O)CNC(=O)c4ccn(S(C)(=O)=O)c4)n3)c2)CC1 = > 0.1 µM
• CN1CCN(c2cccc(-c3csc(NC(=O)CNC(=O)c4ccn(S(C)(=O)=O)c4)n3)c2)CC1=O = > 0.01 µM
• CO[C@H]1CN(c2cccc(-c3csc(NC(=O)CNC(=O)c4ccn(S(C)(=O)=O)c4)n3)c2)C[C@H]1OC = > 0.01 µM
• CC(=O)N(C)c1cc(-c2cccc(-c3csc(NC(=O)CNC(=O)c4ccn(S(C)(=O)=O)c4)n3)c2)ccn1 = < 0.01 µM
• COC(C)(C)Cn1ccc(-c2cccc(-c3csc(NC(=O)CNC(=O)c4ccn(C(C)(C)C)c4)n3)c2)n1 = > 0.1 µM

State IC50 on BRG-1 (Homo sapiens, UniProt P51532). Entry: `C[C@@H]1CN(c2cccc(-c3csc(NC(=O)CNC(=O)c4ccn(C5(C)COC5)c4)n3)c2F)C[C@H](C)O1` > 0.1 µM

State IC50 on BRG-1 (Homo sapiens, UniProt P51532). Entry: `CO[C@H]1CN(c2cccc(-c3csc(NC(=O)CNC(=O)c4ccn(S(C)(=O)=O)c4)n3)c2)C[C@@H]1F` > 0.01 µM

State IC50 on BRG-1 (Homo sapiens, UniProt P51532). Entry: `CS(=O)(=O)n1ccc(C(=O)NCC(=O)Nc2nc(-c3cc(F)c4ccoc4c3)cs2)c1` > 0.01 µM

State IC50 on BRG-1 (Homo sapiens, UniProt P51532). Entry: `CC(C)(C)n1ccc(C(=O)NCC(=O)Nc2nc(-c3cccc(-c4ccncn4)c3)cs2)c1` > 0.01 µM

State IC50 on BRG-1 (Homo sapiens, UniProt P51532). Entry: `CN1CCOCc2ccc(-c3csc(NC(=O)CNC(=O)c4ccn(S(C)(=O)=O)c4)n3)cc21` > 0.01 µM
